Data origin: ChEMBL document CHEMBL1961873

Consider the following compounds; for each one, report its inhibition.
- Measured target: Mitogen-activated protein kinase 13 (Homo sapiens) (UniProt O15264);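 note: reported value is the mean percent inhibition of p38delta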
- Sequence (whole entry): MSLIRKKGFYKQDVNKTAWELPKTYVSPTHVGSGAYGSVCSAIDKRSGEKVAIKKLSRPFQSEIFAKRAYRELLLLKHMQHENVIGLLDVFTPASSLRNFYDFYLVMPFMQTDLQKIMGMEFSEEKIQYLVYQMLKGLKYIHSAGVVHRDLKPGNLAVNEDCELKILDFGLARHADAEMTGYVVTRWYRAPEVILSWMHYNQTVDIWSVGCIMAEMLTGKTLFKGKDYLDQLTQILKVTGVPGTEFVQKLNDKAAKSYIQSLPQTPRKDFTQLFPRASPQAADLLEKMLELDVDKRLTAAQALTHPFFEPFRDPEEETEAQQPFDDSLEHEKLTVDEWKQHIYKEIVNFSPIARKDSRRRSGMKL
- Condition details: at 0.1 µM
Output spec: scalar in %, unitless text.

// field: inhibition; key: `Nc1nc(-c2ccc(F)cc2)c(-c2ccc3ncccc3n2)s1` ; value = 5.53

get_value(item= `N#Cc1c(NC(=O)c2ccc(F)cc2)sc2c1CCCC2` , readout=inhibition) returns -0.62

Noted for `COc1cccc(-n2ncc3c(N/N=C/c4ccc(F)cc4)ncnc32)c1` : its inhibition reads 6.87

Kindly note the recorded inhibition for `CCn1c(-c2nonc2N)nc2ccccc21` , which is 2.36

Briefly, inhibition measured for `Cc1ccc(O)cc1Nc1ccnc2cc(-c3ccccn3)ccc12` : 5.51

Record `CCCN1CCC(c2ccc(Nc3nc(Nc4cc(F)ccc4C(N)=O)c4cc[nH]c4n3)c(OC)c2)CC1` . Reported inhibition: 0.03

Data point: `CCn1c(-c2nonc2N)nc2c(C#CC(C)(C)O)ncc(OC3CCNCC3)c21` ; inhibition = 1.55

# inhibition of `Cc1cccc2c1NC(=O)/C2=N\Nc1ccc(S(N)(=O)=O)cc1` = 1.89

Data point: `CCOc1ccc2c(-c3ccnc(Nc4cccc(C(F)(F)F)c4)n3)cnn2n1` ; inhibition = 1.99

# inhibition of `CCN(CC)S(=O)(=O)c1ccc(OC)c(Nc2ncc(-c3ccccc3)o2)c1` = -0.22

Lookup result for `Fc1ccc(-c2cc(-c3c[nH]nc3-c3ccccn3)ccn2)cc1` ; measured inhibition: -1

Entry under test: `c1ccc(-c2nc3n(c2-c2ccc4c(c2)OCO4)CCC3)nc1` . Its inhibition was 1.49

// sample `CC(=O)Nc1cccc(C#Cc2cncnc2Nc2ccc(OCc3cccc(F)c3)c(Cl)c2)c1` , its inhibition was 2.42

So for `NS(=O)(=O)c1ccc(N/N=C2\C(=O)Nc3ccc4ncccc4c32)cc1` , the logged inhibition turned out to be 0.25

Measured inhibition of `COc1ccc(-c2oc3ncnc(N)c3c2-c2ccc(NC(=O)Nc3cc(C(F)(F)F)ccc3F)cc2)cc1` : 1.95

Recorded result, `FC(F)(F)c1cccc(-c2nn3ncccc3c2-c2ccnc(Nc3ccc4c(c3)OCCO4)n2)c1` , inhibition: 0.07

inhibition in this record for `NS(=O)(=O)c1ccc(Nc2ncc(-c3ccccc3)o2)cc1` : 3.81

According to the records, this compound `Nc1nc(-c2cccc(Cl)c2)c(-c2ccc3ncccc3n2)s1` displays inhibition of 3.72

Entry `CCNC(=O)O[C@H]1CN[C@H](C#Cc2cc3ncnc(Nc4ccc(OCc5cccc(F)c5)c(Cl)c4)c3s2)C1` — recorded inhibition = 1.7

# inhibition (compound: `COc1cccc(-c2c[nH]c3c(N/N=C/c4ccncc4)ncnc23)c1` ) is 6.19

Data point: `COc1ccc2[nH]c3c4[nH]c5ccc(OC)cc5c4c4c(c3c2c1)C(=O)NC4=O` ; inhibition = 0.8
